- System: Salmonella typhimurium
- ASSAY DETAILS: Antimutagenic activity in Salmonella Typhimurium […] assessed as inhibition of benzo[a]pyrene-induced mutation at 600 ug/plate after 72 hrs in presence of Ames S-9 fraction
- Assay type: functional, Salmonella enterica subsp. enterica serovar Typhimurium
Give measured inhibition (INH) for each item. Keep answers brief.
Write down the numeric answer in % and omit the unit.

Endpoint output: inhibition (INH) of C=C[C@@](C)(/C=C/c1ccc(O)cc1)CCC=C(C)C . Value?
43

Endpoint output: inhibition (INH) of O=c1cc(-c2ccc(O)cc2)oc2cc(O)cc(O)c12 . Value?
75

Endpoint output: inhibition (INH) of O=c1c(O)c(-c2ccc(O)c(O)c2)oc2cc(O)cc(O)c12 . Value?
0

Endpoint output: inhibition (INH) of CC(C)=CCc1cc(-c2coc3cc(O)ccc3c2=O)ccc1O . Value?
97

====

- ASSAY DETAILS: Toxicity in Salmonella Typhimurium […] at 600 ug/plate after 72 hrs by Ames assay in presence of Ames S-9 fraction
- Assay type: organism-based
- ASSAY CONDITIONS: salmonella enterica subsp. enterica serovar typhimurium, Salmonella Typhimurium T98 with S-9 fraction
RECORDED ENDPOINT: inhibition at 72 h, 600 ug/plate

Endpoint output: inhibition at 72 h, 600 ug/plate of COc1ccc(-c2cc(=O)c3c(OC)c(OC)c(OC)c(OC)c3o2)cc1OC . Value?
< 20%

Endpoint output: inhibition at 72 h, 600 ug/plate of CC(C)=CCc1c(O)ccc(C(=O)/C=C/c2ccc(O)cc2)c1O . Value?
> 90%

Endpoint output: inhibition at 72 h, 600 ug/plate of COc1ccc(-c2coc3cc(O)cc(O)c3c2=O)cc1 . Value?
< 20%

Endpoint output: inhibition at 72 h, 600 ug/plate of C[C@@H]1O[C@@H](OC[C@H]2O[C@@H](Oc3c(-c4ccc(O)c(O)c4)oc4cc(O)cc(O)c4c3=O)[C@H](O)[C@@H](O)[C@@H]2O)[C@H](O)[C@H](O)[C@H]1O . Value?
< 20%

====

Give measured inhibition at 72 h, 150 ug/plate for each item. Keep answers brief.
- ASSAY DETAILS: Toxicity in Salmonella Typhimurium […] at 150 ug/plate after 72 hrs by Ames assay in presence of Ames S-9 fraction
- Format: organism-based
- ASSAY CONDITIONS: salmonella enterica subsp. enterica serovar typhimurium, Salmonella Typhimurium T98 with S-9 fraction

Endpoint output: inhibition at 72 h, 150 ug/plate of CC(C)=CCc1cc2c(cc1O)O[C@H](c1ccc(O)cc1)CC2=O . Value?
< 20%

Endpoint output: inhibition at 72 h, 150 ug/plate of C=C[C@@](C)(/C=C/c1ccc(O)cc1)CCC=C(C)C . Value?
< 20%

====

Give measured inhibition at 72 h, 600 ug/plate for each item. Keep answers brief.
- ASSAY DETAILS: Toxicity in Salmonella Typhimurium […] at 600 ug/plate after 72 hrs by Ames assay in presence of Ames S-9 fraction
- Type: organism-based
- ASSAY CONDITIONS: salmonella enterica subsp. enterica serovar typhimurium, Salmonella Typhimurium T98 with S-9 fraction

Endpoint output: inhibition at 72 h, 600 ug/plate of CC(C)=CCc1cc(-c2coc3cc(O)ccc3c2=O)ccc1O . Value?
> 90%

Endpoint output: inhibition at 72 h, 600 ug/plate of COc1ccc([C@@H]2CC(=O)c3c(O)cc(O[C@@H]4O[C@H](CO[C@@H]5O[C@@H](C)[C@H](O)[C@@H](O)[C@H]5O)[C@@H](O)[C@H](O)[C@H]4O)cc3O2)cc1O . Value?
< 20%

Endpoint output: inhibition at 72 h, 600 ug/plate of O=c1c(O)c(-c2ccc(O)cc2O)oc2cc(O)cc(O)c12 . Value?
< 30%

Endpoint output: inhibition at 72 h, 600 ug/plate of C=C[C@@](C)(/C=C/c1ccc(O)cc1)CCC=C(C)C . Value?
< 30%
